tested on: KB cells; assay: EGFR driven KB cell proliferation assay, Test (b); assay type: cell-based; details: Homo sapiens, 96 h, EGF 1 ng/ml, 4 days, MTT
Result type: IC50 (nM)

line_notation=COc1cc2ncnc(Nc3cccc(Cl)c3F)c2cc1O[C@H]1C[C@H](C(=O)N[C@H]2COC[C@@H]2O)N(C)C1 assay_result=139

A: COc1cc2ncnc(Nc3cccc(Cl)c3F)c2cc1O[C@H]1C[C@H](C(=O)NCCNC(C)=O)N(C)C1
B: COc1cc2ncnc(Nc3cccc(Cl)c3F)c2cc1O[C@@H]1C[C@@H](C(=O)NCCC#N)N(C)C1
I'd appreciate it if you could identify which of A and B has the greater IC50. Label of pick, please.
A
